Test system: myeloid leukemia patient primary cells Pat.12
measurement_description: cell viability (% survival relative to DMSO control); higher = less cytotoxic
assay_conditions: 10 nM; 72 h
value_type: cell viability (%)
Quick reminder: number only, in %, skip the unit.

Below are worked cases with known answers.
>  <molecule>
CC[C@@]1(O)C(=O)OCc2c1cc1n(c2=O)Cc2cc3c(CN(C)C)c(O)ccc3nc2-1 [Topotecan]

>  <measured_on>
myeloid leukemia patient primary cells Pat.12

>  <value_type>
cell viability

>  <output_unit>
%

>  <assay_value>
97

$$$$
>  <molecule>
COC(=O)[C@]12CCC(C)(C)C[C@H]1[C@H]1C(=O)C=C3[C@@]4(C)C=C(C#N)C(=O)C(C)(C)[C@@H]4CC[C@@]3(C)[C@]1(C)CC2 [Bardoxolone methyl]

>  <measured_on>
myeloid leukemia patient primary cells Pat.12

>  <value_type>
cell viability

>  <output_unit>
%

>  <assay_value>
92.7

$$$$
>  <molecule>
CN(C)C(=O)n1nnnc1Cc1ccc(-c2ccccc2)cc1

>  <measured_on>
myeloid leukemia patient primary cells Pat.12

>  <value_type>
cell viability

>  <output_unit>
%

>  <assay_value>
91.7

$$$$
>  <molecule>
C=C(C=NNC(=N)N)NNC(=N)N [Mitoguazone]

>  <measured_on>
myeloid leukemia patient primary cells Pat.12

>  <value_type>
cell viability

>  <output_unit>
%

>  <assay_value>
90

$$$$
>  <molecule>
C=C(C)[C@H]1Cc2c(ccc3c2O[C@@H]2COc4cc(OC)c(OC)cc4[C@@H]2C3=O)O1 [Rotenone]

>  <measured_on>
myeloid leukemia patient primary cells Pat.12

>  <value_type>
cell viability

>  <output_unit>
%

>  <assay_value>
89.2

$$$$

Attention now turns to another entry.
input: Which measured cell viability value corresponds to O=C(O)Cn1nnc(-c2cc(N3CCC(Oc4cc(F)ccc4Br)CC3)no2)n1 [MK-8245] ?
output: 88.3

###

// cell viability lookup, one value per entry
Tested on: LAMA-84
measurement_description: cell viability (% survival relative to DMSO control, bortezomib = 0%); higher = less cytotoxic
assay_conditions: 1 nM; 72 h
Quick reminder: number only, in %, skip the unit.

>  <compound>
COc1ccc(-c2ccccc2)cc1NS(=O)(=O)c1cc(Cl)cc(Cl)c1O

>  <cell viability (%)>
102

$$$$
>  <compound>
C=C(C=NNC(=N)N)NNC(=N)N [Mitoguazone]

>  <cell viability (%)>
99.9

$$$$
>  <compound>
Cc1coc2c1C(=O)C(=O)c1c-2ccc2c1CCCC2(C)C [Tanshinone IIA]

>  <cell viability (%)>
102

$$$$

input: Which measured cell viability value corresponds to O=c1oc2c(O)c(O)cc3c(=O)oc4c(O)c(O)cc1c4c23 [Benzoaric Acid] ?
output: 101

input: Follow-up entry: CC[C@H](C)C(=O)O[C@H]1C[C@@H](C)C=C2C=C[C@H](C)[C@H](CC[C@@H]3C[C@@H](O)CC(=O)O3)[C@H]21 [Lovastatin]
output: 88.8

input: Follow-up entry: O=C(O)C1=CC(=C(c2ccc(O)c(C(=O)O)c2)c2ccc(O)c(C(=O)O)c2)C=CC1=O [Aurintricarboxylic acid]
output: 105

input: Follow-up entry: CCCCCCCCCCCC(=O)c1c(O)c(C(=O)CCCCCCCCCCC)c(O)c(C2CC(c3ccc(O)cc3)Oc3cc(O)ccc32)c1O (configuration not stated)
output: 105

input: Follow-up entry: N#Cc1ccnc(N2C(=O)CC[C@H]2C(=O)N(c2cncc(F)c2)C(C(=O)NC2CC(F)(F)C2)c2ccccc2Cl)c1 (some centres not stated) [Ivosidenib]
output: 112

input: Follow-up entry: C[C@H](NC(=O)c1sccc1OCc1ccc(Cl)cc1)c1ccccc1
output: 94.2

input: Follow-up entry: O=C1O/C(=C/Br)CCC1c1cccc2ccccc12 (configuration not stated) [Bromoenol Lactone]
output: 101

input: Follow-up entry: O=C(O)C[C@@]1(O)C[C@@H](CCCCCCc2ccc(Cl)cc2Cl)OC1=O
output: 99.6

input: Follow-up entry: NCCCC(N)(C(=O)O)C(F)F (configuration not stated) [Difluoromethylornithine]
output: 107

input: Follow-up entry: COc1cc(/C=C/C(=O)N2CCC=CC2=O)cc(OC)c1OC [Piperlongumine]
output: 104

input: Follow-up entry: Nc1nc(Cl)nc2c1ncn2[C@H]1C[C@H](O)[C@@H](CO)O1 [Cladribine]
output: 112

input: Follow-up entry: O=C(NNc1ccccc1)c1ccncc1 [PluriSln 1]
output: 88.4

input: Follow-up entry: NC(=O)c1cccc(-c2cccc(OC(=O)NC3CCCCC3)c2)c1 [URB-597]
output: 99.8

input: Follow-up entry: COc1ccc(CNC(=O)Nc2ncc([N+](=O)[O-])s2)cc1
output: 109
